tested.target: Recombinant full length human OGA enzyme (Homo sapiens (Human))
run.description: OGA Enzyme Inhibition Biochemical Assay
assay.conditions: 1 nM OGA, 100 μM 4-MUGlcNAc, pH 6.4
pIC50: −log10 of the molar value.
measurement.type: pIC50

1 = CC(=O)Nc1nc(F)c(CN2C[C@H](Oc3ncc(C)nc3C)C[C@@H]2C)s1
2 = COc1cc(O[C@@H]2CCN(Cc3cnc(NC(C)=O)s3)C2)ncn1
Hi, I'm comparing 1 with 2 and wondering which one has the bigger number for pIC50. Any idea? Write down the label attached to your selection.
1

---

Test system: P-gp (MDR1)
run.description: MDR1-MDCK Efflux Ratio Assay
Assay type: in vitro ADME
assay.conditions: dog, MDCK-MDR1, pH 7.4, MDR1-MDCK cells, 2 hr, pH 7.4; read-out: MDR1-MDCK Efflux Ratio (B-A/A-B)
Description: MDR1-MDCK cell monolayers were grown to confluence on microporous polyester membranes in 96-well Corning insert plates. The permeability assay buffer was Hanks' Balanced Salt Solution containing 10 mM HEPES at pH of 7.4. Loperamide (1 μM) was used as a positive control P-gp substrate. Propranolol and Bestatin (1 μM) were used as high and low permeability comparators, respectively. […] Test and control compound concentrations were determined using LC-MS/MS analysis. […]
measurement.type: efflux ratio at 2 h

>>> print(df.to_string())
                                   compound  number
0  CC(=O)Nc1ncc(CN2C[C@H](Oc3cc(C)nc(C)c3)C[C@@H]2C)s1 [Example 1-60]    21.3

I = CCOc1cc(O[C@@H]2C[C@H](C)N(Cc3cnc(NC(C)=O)s3)C2)ncn1 [Example 1-126]
II = CC(=O)Nc1ncc(CN2C[C@H](Oc3cc(C(C)=O)ncn3)C[C@@H]2C)s1 [Example 1-76]
Lab notebook, comparison: I versus II , higher efflux ratio at 2 h goes to which? Give the label of your selection.
II

---

tested.target: OGA (S400 O-GLCNAC), HEK-293T cells transfected with Tau-V5 (Homo sapiens (Human))
Sequence (O60502 whole entry): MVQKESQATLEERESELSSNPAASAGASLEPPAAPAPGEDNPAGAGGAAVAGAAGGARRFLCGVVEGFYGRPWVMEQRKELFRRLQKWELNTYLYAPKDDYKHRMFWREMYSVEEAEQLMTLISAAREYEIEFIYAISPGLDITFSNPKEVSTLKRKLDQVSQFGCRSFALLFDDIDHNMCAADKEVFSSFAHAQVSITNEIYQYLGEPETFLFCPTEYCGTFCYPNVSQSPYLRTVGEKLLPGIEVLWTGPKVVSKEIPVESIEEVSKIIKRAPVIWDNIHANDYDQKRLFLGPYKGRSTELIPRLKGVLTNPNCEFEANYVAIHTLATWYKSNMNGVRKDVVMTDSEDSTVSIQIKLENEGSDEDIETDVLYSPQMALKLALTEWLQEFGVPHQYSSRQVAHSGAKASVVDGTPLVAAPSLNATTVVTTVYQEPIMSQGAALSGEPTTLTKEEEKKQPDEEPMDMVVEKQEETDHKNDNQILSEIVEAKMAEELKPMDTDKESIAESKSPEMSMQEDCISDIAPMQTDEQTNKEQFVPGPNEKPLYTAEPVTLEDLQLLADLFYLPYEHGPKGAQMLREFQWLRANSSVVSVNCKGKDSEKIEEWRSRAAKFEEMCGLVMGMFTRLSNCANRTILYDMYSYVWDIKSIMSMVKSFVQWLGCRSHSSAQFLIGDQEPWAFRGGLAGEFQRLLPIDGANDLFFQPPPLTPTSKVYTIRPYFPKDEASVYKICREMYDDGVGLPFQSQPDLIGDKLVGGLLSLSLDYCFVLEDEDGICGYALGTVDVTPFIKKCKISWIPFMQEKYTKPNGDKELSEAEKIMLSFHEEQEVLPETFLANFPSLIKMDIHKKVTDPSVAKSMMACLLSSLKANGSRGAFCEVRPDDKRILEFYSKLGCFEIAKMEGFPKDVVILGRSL
run.description: Cellular OGA-Tau MSD Assay
Type: cell-based
assay.conditions: HEK-293T cells, Tau-S400-GlcNAc MSD readout
measurement.type: IC50 (nM)

                                 mol_smiles  measurement_type  number
0  CC(=O)Nc1ncc(CN2C[C@H](Oc3ccc(C#N)cn3)C[C@@H]2C)s1              IC50       1
1  CC(=O)Nc1ncc(CN2C[C@H](Oc3cc(N4CCCC4)ncn3)C[C@@H]2C)s1              IC50       1

I = CC(=O)Nc1nc(F)c(CN2C[C@H](Oc3ncc(F)cn3)C[C@@H]2C)s1
II = CC(=O)Nc1ncc(CN2C[C@H](Oc3cc(C(F)(F)F)ncn3)C[C@@H]2C)s1
# argmax over IC50 for candidates I and II Field: selected label. Fill in the label of the entry you choose.
II
(II: 41 nM, I: 1 nM)

---

tested.target: Recombinant full length human OGA enzyme (Homo sapiens (Human))
run.description: OGA Enzyme Inhibition Biochemical Assay
assay.conditions: 1 nM OGA, 100 μM 4-MUGlcNAc, pH 6.4
Procedure: Recombinant full length human OGA enzyme was purchased from Origene. 4-MUGlcNAc substrate was purchased from Sigma. All other reagents were purchased from Sigma or Fisher. Assay buffer consists of the McIlvaine buffer system, pH 6.4 (0.2M Na2HPO4 mixed with 0.1M citric acid) and 0.01% BSA. […] Reactions were incubated for 90 minutes at room temperature and quenched with 40 μl of 3M glycine, pH 10 and read on a Perkin Elmer Envision plate reader (Ex: 355 nm/Em: 460 nm). […]
pIC50: −log10 of the molar value.
measurement.type: pIC50

In [3]: df
Out[3]:
                                   molecule  measurement_type  result
0  COc1cc(O[C@H]2C[C@H](C)N(Cc3sc(NC(C)=O)nc3F)C2)ncn1             pIC50    7.82
1  CC(=O)Nc1nc(F)c(CN2C[C@H](Oc3cc(C)nc(C)c3)CC[C@@H]2C)s1             pIC50  > 9.00
2  CC(=O)Nc1nc(F)c(CN2C[C@H](Oc3cc(OC4COC4)ncn3)C[C@@H]2C)s1             pIC50  > 9.00
3  CC(=O)Nc1ncc(CN2C[C@@H](Oc3ccc(F)cn3)C[C@H]2C)s1             pIC50    6.34
4  CC(=O)Nc1nc(F)c(CN2C[C@H](Oc3ccnc(C)c3)C[C@@H]2C)s1             pIC50  > 9.00
5  COc1cc(O[C@@H]2CC[C@H](C)N(Cc3sc(NC(C)=O)nc3F)C2)ncn1             pIC50  > 9.00

// next item, pIC50 requested
// query pIC50 value for entry CC(=O)Nc1ncc(CN2C[C@H](Oc3cc(OC4COC4)ncn3)C[C@@H]2C)s1
> 9.00
